viability at 24 h, 50 µM values, listed per item
- PROTOCOL_TEXT: Cytotoxicity against rat PC-12 cells assessed as cell viability at 50 uM incubated for 24 hrs by MTT assay relative to control
- Format: toxicity, cell-based
- STATED_CONDITIONS: read-out: Activity
Quick note: give the figure in %, leave out the unit.

(Q) State the recorded viability at 24 h, 50 µM for this entry: O=C(CNc1cccc(F)c1)Nc1ccc(-c2nc(-c3ccnc(Nc4ccc(OC(F)(F)F)cc4)c3)no2)cc1
(A) 99.3

(Q) State the recorded viability at 24 h, 50 µM for this entry: O=C(CNC1CC1)Nc1ccc(-c2nc(-c3ccnc(Nc4ccc(OC(F)(F)F)cc4)c3)no2)cc1
(A) 99.7

(Q) State the recorded viability at 24 h, 50 µM for this entry: O=C(CNCc1cccc(Cl)c1)Nc1ccc(-c2nc(-c3ccnc(Nc4ccc(OC(F)(F)F)cc4)c3)no2)cc1
(A) 99.7

(Q) State the recorded viability at 24 h, 50 µM for this entry: CC(C)CNCC(=O)Nc1ccc(-c2nc(-c3ccnc(Nc4ccc(OC(F)(F)F)cc4)c3)no2)cc1
(A) 99.6

(Q) State the recorded viability at 24 h, 50 µM for this entry: O=C(CNc1cccc(Cl)c1)Nc1ccc(-c2nc(-c3ccnc(Nc4ccc(OC(F)(F)F)cc4)c3)no2)cc1
(A) 98.7

(Q) State the recorded viability at 24 h, 50 µM for this entry: O=C(CNc1ccc(C(F)(F)F)cc1)Nc1ccc(-c2nc(-c3ccnc(Nc4ccc(OC(F)(F)F)cc4)c3)no2)cc1
(A) 99.7

(Q) State the recorded viability at 24 h, 50 µM for this entry: CCCNCC(=O)Nc1ccc(-c2nc(-c3ccnc(Nc4ccc(OC(F)(F)F)cc4)c3)no2)cc1
(A) 99.5

(Q) State the recorded viability at 24 h, 50 µM for this entry: O=C(CNc1ccc(F)c(F)c1)Nc1ccc(-c2nc(-c3ccnc(Nc4ccc(OC(F)(F)F)cc4)c3)no2)cc1
(A) 97.3

(Q) State the recorded viability at 24 h, 50 µM for this entry: O=C(CNc1ccc(Br)cc1)Nc1ccc(-c2nc(-c3ccnc(Nc4ccc(OC(F)(F)F)cc4)c3)no2)cc1
(A) 99.1

(Q) State the recorded viability at 24 h, 50 µM for this entry: O=C(CNc1ccc(F)cc1)Nc1ccc(-c2nc(-c3ccnc(Nc4ccc(OC(F)(F)F)cc4)c3)no2)cc1
(A) 98.8

(Q) State the recorded viability at 24 h, 50 µM for this entry: O=C(CNCc1ccccc1)Nc1ccc(-c2nc(-c3ccnc(Nc4ccc(OC(F)(F)F)cc4)c3)no2)cc1
(A) 99.5

(Q) State the recorded viability at 24 h, 50 µM for this entry: O=C(CNc1ccc(Cl)cc1)Nc1ccc(-c2nc(-c3ccnc(Nc4ccc(OC(F)(F)F)cc4)c3)no2)cc1
(A) 98.2

(Q) State the recorded viability at 24 h, 50 µM for this entry: O=C(CNc1ccccc1)Nc1ccc(-c2nc(-c3ccnc(Nc4ccc(OC(F)(F)F)cc4)c3)no2)cc1
(A) 99.4

====

List of IC50 tested on Cholinesterase (Equus caballus).
Sequence (P81908 whole entry): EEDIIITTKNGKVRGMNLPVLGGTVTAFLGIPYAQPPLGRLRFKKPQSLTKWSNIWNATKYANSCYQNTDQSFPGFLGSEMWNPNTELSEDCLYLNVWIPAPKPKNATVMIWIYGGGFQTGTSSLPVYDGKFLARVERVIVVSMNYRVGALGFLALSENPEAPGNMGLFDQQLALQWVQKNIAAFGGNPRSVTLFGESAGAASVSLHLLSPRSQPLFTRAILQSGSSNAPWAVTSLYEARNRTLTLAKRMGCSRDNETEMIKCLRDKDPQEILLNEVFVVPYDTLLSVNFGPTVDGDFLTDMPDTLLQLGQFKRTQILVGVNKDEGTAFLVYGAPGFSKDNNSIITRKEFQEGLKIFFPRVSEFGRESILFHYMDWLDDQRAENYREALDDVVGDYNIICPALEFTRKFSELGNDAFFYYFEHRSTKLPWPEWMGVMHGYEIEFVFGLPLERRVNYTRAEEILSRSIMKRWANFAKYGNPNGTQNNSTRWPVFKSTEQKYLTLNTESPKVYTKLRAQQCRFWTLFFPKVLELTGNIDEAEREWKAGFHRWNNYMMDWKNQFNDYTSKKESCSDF
Answer with the figure and its unit, nothing else.

// worked examples, IC50 included
{"SMILES_NOTATION": "O=C(CNc1cccc(F)c1)Nc1ccc(-c2nc(-c3ccnc(Nc4ccc(OC(F)(F)F)cc4)c3)no2)cc1", "ASSAYED_TARGET": "Cholinesterase (Equus caballus)", "IC50": "5.51 µM"}
{"SMILES_NOTATION": "O=C(CNC1CC1)Nc1ccc(-c2nc(-c3ccnc(Nc4ccc(OC(F)(F)F)cc4)c3)no2)cc1", "ASSAYED_TARGET": "Cholinesterase (Equus caballus)", "IC50": "24.3 µM"}
{"SMILES_NOTATION": "O=C(CNc1ccc(F)c(F)c1)Nc1ccc(-c2nc(-c3ccnc(Nc4ccc(OC(F)(F)F)cc4)c3)no2)cc1", "ASSAYED_TARGET": "Cholinesterase (Equus caballus)", "IC50": "9.88 µM"}

Could you now consider this next compound?
(Q) State the recorded IC50 for this entry: O=C(CNCc1cccc(F)c1)Nc1ccc(-c2nc(-c3ccnc(Nc4ccc(OC(F)(F)F)cc4)c3)no2)cc1
(A) 45.3 µM
